study.system: human Tissue Factor (hTF), endogenously expressed on human TF-positive cells (human, UniProt P13726 33-295)
assay.procedure: cell-based or functional assay
Think of 10% as a floor: if % GM-CSF, 40 nM antibody, MDA-MB-231 cells + FVIIa stands on it or above, it is true; beneath it, false.

See these solved cases before continuing.
binder	category
anti-TF antibody 25G9 (antibody, human IgG1, kappa, V domains shown, Human IgG1) VH: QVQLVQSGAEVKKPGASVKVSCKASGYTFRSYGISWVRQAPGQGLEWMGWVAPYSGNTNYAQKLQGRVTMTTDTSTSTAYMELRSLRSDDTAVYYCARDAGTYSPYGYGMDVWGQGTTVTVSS VL: DIQMTQSPSTLSASVGDRVTITCQASQSIDSWLAWYQQKPGKAPKLLIYSASYLESGVPSRFSGSGSGTEFTLTISSLQPDDFATYYCQRFQSLPPFTFGGGTKVEIKR	true
anti-TF antibody 39A (antibody, human IgG1, V domains shown, Human IgG1) VH: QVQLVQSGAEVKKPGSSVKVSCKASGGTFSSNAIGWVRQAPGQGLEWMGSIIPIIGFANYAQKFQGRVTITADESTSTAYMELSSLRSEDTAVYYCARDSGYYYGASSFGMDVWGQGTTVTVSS VL: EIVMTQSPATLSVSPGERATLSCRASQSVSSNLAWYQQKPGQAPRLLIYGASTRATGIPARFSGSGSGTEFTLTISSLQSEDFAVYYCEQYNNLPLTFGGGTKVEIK	false
anti-TF antibody 43D (antibody, human IgG1, V domains shown) VH: QVQLQQWGAGLLKPSETLSLTCAVYGGSLSGYYWSWIRQPPGKGLEWIGEIGASGSTRYNPSLKSRVTISVDTSKNQFSLKLSSVTAADTAVYYCARDTPYYYEGGYYYYMDVWGKGTTVTVSS VL: EIVLTQSPGTLSLSPGERATLSCRASQSVSSSYLAWYQQKPGQAPRLLIYGASSRATGIPDRFSGSGSGTDFTLTISRLEPEDFAVYYCQQVGVVPYTFGGGTKVEIK	true
anti-TF antibody 25G (antibody, human IgG1, kappa, V domains shown, Human IgG1) VH: QVQLVQSGAEVKKPGASVKVSCKASGYTFRSYGISWVRQAPGQGLEWMGWVAPYNGNTNYAQKLQGRVTMTTDTSTSTAYMELRSLRSDDTAVYYCARDAGTYSPYGYGMDVWGQGTTVTVSS VL: DIQMTQSPSTLSASVGDRVTITCRASQSISSWLAWYQQKPGKAPKLLIYKASSLESGVPSRFSGSGSGTEFTLTISSLQPDDFATYYCQQFQSLPPFTFGGGTKVEIKR	true
anti-TF antibody 25A (antibody, human IgG1, V domains shown, Human IgG1) VH: QVQLVQSGAEVKKPGASVKVSCKASGYTFDVYGISWVRQAPGQGLEWMGWIAPYNGNTNYAQKLQGRVTMTTDTSTSTAYMELRSLRSDDTAVYYCARDAGTYSPFGYGMDVWGQGTTVTVSS VL: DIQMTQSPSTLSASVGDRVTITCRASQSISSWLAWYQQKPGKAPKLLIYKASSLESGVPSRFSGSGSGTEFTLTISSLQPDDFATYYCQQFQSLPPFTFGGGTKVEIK	true
anti-TF antibody 54E (antibody, human IgG1, V domains shown, Human IgG1) VH: QVQLVQSGAEVKKPGASVKVSCKASGYTFANYYMHWVRQAPGQGLEWMGIINPSGGITVYAQKFQGRVTMTRDTSTSTVYMELSSLRSEDTAVYYCARGGSKVAALAFDIWGQGTMVTVSS VL: DIQMTQSPSSLSASVGDRVTITCQASQDISNSLNWYQQKPGKAPKLLIYDASNLETGVPSRFSGSRSGTDFTFTISSLQPEDIATYYCQQYNFHPLTFGGGTKVEIK	false

Next, consider the following binder.
Reported % GM-CSF, 40 nM antibody, MDA-MB-231 cells + FVIIa at or above 10%? anti-TF antibody 43D8 (antibody, human IgG1, kappa, V domains shown, Human IgG1) VH: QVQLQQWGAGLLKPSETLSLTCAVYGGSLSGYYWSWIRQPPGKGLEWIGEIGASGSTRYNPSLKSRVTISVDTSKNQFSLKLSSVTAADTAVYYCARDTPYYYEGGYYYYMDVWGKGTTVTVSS VL: EIVLTQSPGTLSLSPGERATLSCRASQSVSSSFLAWYQQKPGQAPRLLIYGAYSRATGIPDRFSGSGSGTDFTLTISRLEPEDFAVYYCQQAGVVPYTFGGGTKVEIKR
true
